All values here come from patent US20240092922A1.

Target: T1, Histidine-tagged human 4-1BB protein (h4-1BB-His) (human, UniProt Q07011 24-186)
T1 construct: not shown: histidine tag
Experiment: SPR (Biacore T200), antibody on Protein A chip, h4-1BB-His injected;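 further: dissociation phase followed for 300 s, Kd derived as koff divided by kon from the kinetic fit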
measured_property: Kd (nM)
Response body: numeric value in nM, unit text excluded.

Worked set:
binder	measured_property	unit_name	result_value
6A5-H1K2-IgG2 (antibody, V domains shown, humanized) VH: QVQLVQSGAEVKKPGSSVKLSCKASGYTFSSYWINWVRQAPGQGLEWMGNIYPSDSYTNYNQKFKDRVTLTVDKSTSTAYMELSSLRSEDTAVYYCTRTWEFYYDSVFDYWGQGTLVTVSS VL: DIQMTQSPSSLSASLGERVTITCKASQDINSYLSWYQQKPGKAPKTLIYRANRLVDGVPSRFSGSGSGQDFTLTISSLQPEDIATYYCLQYDELPPTFGGGTKVEIK	Kd	nM	0.278
5F9-H2K1-IgG4 (antibody, V domains shown, humanized) VH: QVQLKESGPGLVKPSETLSLTCTVSGFSLTTYDISWVRQPPGKGLEWLGVIWTGGGTNYNSSFMSRVTISKDTSKNQVSLKLSSVTAADTAIYYCERVDYWGQGTTVTVSS VL: DVVMTQSPLSLPVTLGQPASISCRSSQSLVHSNGNTYLHWFQQRPGQSPRLLIYKVSNRFSGVPDRFSGSGSGTAFTFKISRVEAEDVGVYYCSQNTHVPWTFGGGTKVEIK	Kd	nM	11.2

For the next question, use this binder.
Reported Kd for 70-3F9-mHvKv-IgG2 (antibody, V domains shown) VH: QVQLQQPGAELVRPGASVKLSCKASGYTFTSYWINWVKQRPGQGLEWIGNIFPSDSYTNYNQKFKDRAKLTVDKSSSTAYMQLSSPTSEDSAVYYCTRFGSSGYPDYYTMEYWGQGTSVTVSS VL: DIQMTQSPASLSASVGETVTITCRASGNIDNYLAWYQQKQGKSPQLLVYNAKTLAEGVPSRFSGSGSGTEYSLKINSLQPEDFGSYHCQQYWTIPYTFGGGTKLEIK : what is it?
0.16
